# system: human NK1 receptor (Homo sapiens, UniProt P25103)
# Construct: membrane suspension
# Sequence (P25103 whole entry): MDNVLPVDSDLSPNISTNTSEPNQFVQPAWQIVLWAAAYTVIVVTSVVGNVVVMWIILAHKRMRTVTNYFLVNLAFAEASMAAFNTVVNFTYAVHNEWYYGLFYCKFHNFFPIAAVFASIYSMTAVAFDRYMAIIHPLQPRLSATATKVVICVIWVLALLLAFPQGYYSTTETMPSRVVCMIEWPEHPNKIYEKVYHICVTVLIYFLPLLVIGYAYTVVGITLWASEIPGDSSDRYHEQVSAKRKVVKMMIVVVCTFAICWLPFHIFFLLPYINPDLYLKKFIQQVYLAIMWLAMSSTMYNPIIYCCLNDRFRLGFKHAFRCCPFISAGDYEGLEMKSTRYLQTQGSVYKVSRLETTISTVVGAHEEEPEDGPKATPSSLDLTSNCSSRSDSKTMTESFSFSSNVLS
# assay: NK1 receptor binding assay, [3H]substance P displacement
# protocol-conditions: affinity to the NK-1 receptor; human NK1 receptors in CHO cells; [3H]substance P 0.6 nM
readout-name: Ki (nM)

compound: Cc1ccccc1-c1cc(N(C)C(=O)C2CC2)ncc1N(C)C(=O)C(C)(C)c1cc(C(F)(F)F)cc(C(F)(F)F)c1 [Example 13]
reported: 1.35

[1] CC(=O)Nc1cc(-c2ccccc2C)c(N(C)C(=O)C(C)(C)c2cc(C(F)(F)F)cc(C(F)(F)F)c2)cn1 [Example 10]
[2] Cc1ccccc1-c1cc(NCCO)ncc1C(=O)N(C)Cc1cc(C(F)(F)F)cc(C(F)(F)F)c1 [Example 2]
Of the pair 1 and 2 , name the member with the lesser recorded Ki. Answer = label.
2
(2: 1.35 nM, 1: 2.51 nM)

* * *

# system: human NK1 receptor (Homo sapiens)
# Construct: membrane suspension
# assay: NK1 receptor binding assay, [3H]substance P displacement
# protocol-conditions: affinity to the NK-1 receptor; human NK1 receptors in CHO cells; [3H]substance P 0.6 nM
pKi: −log10 of the molar value.
readout-name: pKi

The cases that follow already have their pKi on record.
compound: CN(C(=O)C(C)(C)c1cc(C(F)(F)F)cc(C(F)(F)F)c1)c1cnc(NCCO)cc1-c1ccccc1Cl [Example 8]
pKi: 9.14
--
compound: Cc1ccccc1-c1cc(N2CC[C@@H](O)C2)ncc1C(=O)N(C)Cc1cc(C(F)(F)F)cc(C(F)(F)F)c1 [Example 5]
pKi: 9.24
--
compound: CN(Cc1cc(C(F)(F)F)cc(C(F)(F)F)c1)C(=O)c1cnc(N2CCC(O)CC2)cc1-c1ccccc1Cl [Example 6]
pKi: 9.18
--
compound: Cc1ccccc1-c1cc(NCCO)ncc1N(C)C(=O)C(C)(C)c1cc(C(F)(F)F)cc(C(F)(F)F)c1 [Example 7]
pKi: 9.16

[I] Cc1ccccc1-c1cc(-n2ccnc2)ncc1N(C)C(=O)C(C)(C)c1cc(C(F)(F)F)cc(C(F)(F)F)c1 [Example 14]
[II] Cc1ccccc1-c1cc(N2CCC(OCCO)CC2)ncc1C(=O)N(C)Cc1cc(C(F)(F)F)cc(C(F)(F)F)c1 [Example 4]
[III] Cc1ccccc1-c1cc(-n2cncn2)ncc1C(=O)N(C)Cc1cc(C(F)(F)F)cc(C(F)(F)F)c1 [Example 1]
Which order do these items take when sorted by rising pKi? List them. Response field: labels, in requested order.
III, I, II

* * *

# system: human NK1 receptor (Homo sapiens)
# Construct: expressed in transfected cells; host or cells: CHO cells infected using the Semliki virus expression system; membrane suspension
# assay: NK1 receptor binding assay, [3H]substance P displacement
# protocol-conditions: affinity to the NK-1 receptor; human NK1 receptors in CHO cells; [3H]substance P 0.6 nM
pKi: −log10 of the molar value.
readout-name: pKi

compound: CC(=O)N(C)c1cc(-c2ccccc2C)c(N(C)C(=O)C(C)(C)c2cc(C(F)(F)F)cc(C(F)(F)F)c2)cn1 [Example 11]
reported: 8.71
//
compound: Cc1ccccc1-c1cc(NC(=O)C2CC2)ncc1N(C)C(=O)C(C)(C)c1cc(C(F)(F)F)cc(C(F)(F)F)c1 [Example 12]
reported: 8.65
//
compound: Cc1ccccc1-c1cc(N2CCC(O)CC2)ncc1C(=O)N(C)Cc1cc(C(F)(F)F)cc(C(F)(F)F)c1 [Example 3]
reported: 8.91
//
compound: Cc1ccccc1-c1cc(N2C=COCC2)ncc1N(C)C(=O)C(C)(C)c1cc(C(F)(F)F)cc(C(F)(F)F)c1 [Example 9]
reported: 8.83

src = patent US6624176B2
